human leukocyte-derived elastase [ヒト白血球由来エラスターゼ] (Homo sapiens) data, read-out IC50
Sequence (P08246 30-247 limits assumed): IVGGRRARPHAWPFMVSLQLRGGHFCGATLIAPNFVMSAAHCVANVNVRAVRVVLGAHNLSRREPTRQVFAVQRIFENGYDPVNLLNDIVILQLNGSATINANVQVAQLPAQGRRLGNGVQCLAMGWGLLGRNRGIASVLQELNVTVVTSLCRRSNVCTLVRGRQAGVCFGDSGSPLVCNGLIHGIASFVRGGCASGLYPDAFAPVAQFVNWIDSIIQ
All answers are understood in µM, so give the number only.

- LINE_NOTATION: "CCOC(=O)C(CCC(C)C)(CCC(C)C)C(=O)NOCc1ccccc1"
  RECORDED_RESULT: 3
- LINE_NOTATION: "CCOC(=O)C(CCC(C)C)(CCC(C)C)C(=O)NO"
  RECORDED_RESULT: 1

Query: Could you tell me which IC50 is on file for CC(C)CCC(CCC(C)C)C(=O)NO ?
Response: 1

Origin of the recorded values: patent JPH07173127A
